# target.desc: wt human TYK2, catalytic site (Homo sapiens, UniProt P29597)
# Construct: wt human TYK2, catalytic site
# Sequence (P29597 897-1176 limits assumed): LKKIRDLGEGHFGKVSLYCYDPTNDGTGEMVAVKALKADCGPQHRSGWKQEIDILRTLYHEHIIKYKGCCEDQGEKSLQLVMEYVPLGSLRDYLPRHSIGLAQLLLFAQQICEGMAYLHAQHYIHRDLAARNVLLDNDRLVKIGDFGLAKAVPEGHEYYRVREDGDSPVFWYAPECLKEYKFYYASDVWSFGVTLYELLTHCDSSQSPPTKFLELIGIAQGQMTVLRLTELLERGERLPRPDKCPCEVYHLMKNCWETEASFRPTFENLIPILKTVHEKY
# measurement.notes: HTRF KinEASE assay, TYK2
# settings: 1 μM ATP; read-out: IC50, Activity Toward TYK2
I'd appreciate it if you could supply IC50 values for the items below.

Exercise: Give the measured IC50 of "Cc1cc(Nc2cn(-c3ccccc3F)nc2C(N)=O)ncn1" .
Key: 100 to 1000 nM

Exercise: # iterate: "CCNC(=O)c1ccc(Nc2cn(-c3c(F)cccc3OC)nc2C(N)=O)cn1"
Key: 100 to 1000 nM

Exercise: // next record "Cc1cncc2nnc(-c3ccc(Nc4nn(-c5c(Cl)cccc5Cl)nc4C(N)=O)cn3)n12"
Key: 10 to 100 nM

Exercise: How about "NC(=O)c1nn(-c2c(Cl)cccc2Cl)nc1Nc1cnn(CC(=O)N2CCOCC2)c1" ?
Key: 10 to 100 nM

* * *

# target.desc: wt human TYK2, catalytic site (Homo sapiens, UniProt P29597)
# Construct: wt human TYK2, catalytic site
# measurement.notes: HTRF KinEASE assay, TYK2
# settings: 1 μM ATP; read-out: IC50, Activity Toward TYK2
pIC50: −log10 of the molar value.
endpoint: pIC50

Exercise: Item CC(C)Oc1ccc(Nc2cn(-c3c(Cl)cccc3Cl)nc2C(N)=O)cc1 [compound 261] with wt human TYK2, catalytic site (Homo sapiens, UniProt P29597) - pIC50?
Key: 6.00 to 7.00

Exercise: Request: NC(=O)c1nn(-c2c(Cl)cccc2Cl)cc1Nc1ccc(C(=O)N2CCS(=O)(=O)CC2)cc1 [compound 451]
Key: > 8.00

Exercise: Try this molecule too: CN(C)C1CCN(C(=O)c2ccc(Nc3nn(-c4c(Cl)cccc4Cl)nc3C(N)=O)nc2)CC1 [compound 149]
Key: 7.00 to 8.00

Exercise: For COC(=O)Cn1cc(Nc2cn(-c3c(Cl)cccc3Cl)nc2C(N)=O)cn1 [compound 462] then?
Key: 6.00 to 7.00

* * *

I'd appreciate it if you could supply IC50 values for the items below.
# target.desc: G2019S human LRRK2, catalytic site (Homo sapiens, UniProt Q5S007, G2019S)
# Construct: G2019S human LRRK2, catalytic site
# Sequence (Q5S007 970-2527 G2019S limits assumed): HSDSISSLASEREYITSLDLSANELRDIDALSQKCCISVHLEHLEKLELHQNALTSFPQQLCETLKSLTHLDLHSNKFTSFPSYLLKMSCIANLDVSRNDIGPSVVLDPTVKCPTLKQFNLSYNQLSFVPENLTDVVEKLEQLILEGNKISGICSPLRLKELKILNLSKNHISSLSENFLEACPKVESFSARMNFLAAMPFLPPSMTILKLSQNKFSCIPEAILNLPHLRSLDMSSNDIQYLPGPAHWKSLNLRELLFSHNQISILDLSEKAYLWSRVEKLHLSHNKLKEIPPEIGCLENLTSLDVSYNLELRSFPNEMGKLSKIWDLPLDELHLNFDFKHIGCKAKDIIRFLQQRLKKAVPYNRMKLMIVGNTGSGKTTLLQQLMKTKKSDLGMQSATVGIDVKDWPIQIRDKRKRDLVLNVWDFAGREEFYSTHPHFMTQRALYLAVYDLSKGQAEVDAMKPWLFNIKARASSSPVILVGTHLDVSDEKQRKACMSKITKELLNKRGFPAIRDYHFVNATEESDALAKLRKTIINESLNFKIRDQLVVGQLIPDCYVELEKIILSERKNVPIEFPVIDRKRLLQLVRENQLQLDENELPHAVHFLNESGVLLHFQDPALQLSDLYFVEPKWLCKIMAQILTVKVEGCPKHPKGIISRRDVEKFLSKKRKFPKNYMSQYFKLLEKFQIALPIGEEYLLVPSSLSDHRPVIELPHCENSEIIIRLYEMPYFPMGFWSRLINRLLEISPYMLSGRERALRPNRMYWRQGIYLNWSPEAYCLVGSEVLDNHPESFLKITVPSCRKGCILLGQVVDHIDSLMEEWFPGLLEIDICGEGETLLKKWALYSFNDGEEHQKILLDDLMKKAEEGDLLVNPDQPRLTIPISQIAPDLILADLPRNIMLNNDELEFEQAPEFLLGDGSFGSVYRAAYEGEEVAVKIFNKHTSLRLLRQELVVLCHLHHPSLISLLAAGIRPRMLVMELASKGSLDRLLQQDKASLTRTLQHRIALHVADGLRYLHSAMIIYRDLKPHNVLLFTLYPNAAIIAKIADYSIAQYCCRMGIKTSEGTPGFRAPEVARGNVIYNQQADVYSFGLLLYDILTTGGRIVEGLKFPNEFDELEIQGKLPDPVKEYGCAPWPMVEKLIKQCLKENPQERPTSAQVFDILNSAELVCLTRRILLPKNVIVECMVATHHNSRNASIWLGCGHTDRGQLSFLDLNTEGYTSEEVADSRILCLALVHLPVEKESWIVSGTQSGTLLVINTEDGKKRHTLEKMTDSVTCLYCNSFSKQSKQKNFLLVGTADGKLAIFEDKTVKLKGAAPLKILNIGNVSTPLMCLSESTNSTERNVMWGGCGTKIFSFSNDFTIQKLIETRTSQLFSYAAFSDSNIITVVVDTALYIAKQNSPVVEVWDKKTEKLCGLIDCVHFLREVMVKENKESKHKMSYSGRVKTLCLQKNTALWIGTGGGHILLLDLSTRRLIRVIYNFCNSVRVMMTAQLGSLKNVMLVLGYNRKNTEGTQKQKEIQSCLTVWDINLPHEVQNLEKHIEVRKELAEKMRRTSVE
# measurement.notes: TR-FRET LanthaScreen Eu Kinase Binding Assay, LRRK2 G2019S
# settings: LRRK2(G2019); one range stated for wt and G2019; read-out: IC50, Activity Toward LRRK2(G2019)

Exercise: Query (molecule): "NC(=O)c1nn(-c2c(Cl)cccc2Cl)nc1Nc1ccc(C(=O)N2CC(F)C2)cc1" ; field requested: IC50
Key: 100 to 1000 nM

Exercise: Next record, please: "CN1CCN(C(=O)c2ccc(Nc3cn(-c4c(F)cccc4Cl)nc3C(N)=O)cc2)CC1"
Key: 10 to 100 nM

Exercise: Repeat for the following molecule: "CN(C)C1CCN(C(=O)c2ccc(Nc3cn(-c4c(Cl)cccc4Cl)nc3C(N)=O)cc2)CC1"
Key: 100 to 1000 nM

Exercise: // repeat for "Cn1cc(C(F)(F)F)nc1-c1ccc(Nc2cn(-c3c(F)cccc3F)nc2C(N)=O)cc1" and report
Key: 100 to 1000 nM

Exercise: Item: "NC(=O)c1nn(-c2c(Cl)cccc2Cl)cc1Nc1ccc(C(=O)N2CCCCC2)cc1"
Key: 100 to 1000 nM

Exercise: Same again, this time with "N#Cc1cn(C2COC2)c(-c2ccc(Nc3cn(-c4c(Cl)cccc4Cl)nc3C(N)=O)cc2)n1"
Key: 100 to 1000 nM

Exercise: Similarly, "NC(=O)c1nn(-c2c(Cl)cccc2Cl)cc1Nc1ccc(C(=O)N2CCN(C3CC3)CC2)cc1" ?
Key: 100 to 1000 nM

Exercise: Follow-up entry: "NC(=O)c1nn(-c2c(Cl)cccc2Cl)cc1Nc1ccc(C(=O)N2CCN(CC(F)F)CC2)cc1"
Key: 100 to 1000 nM

Exercise: Now the molecule "NC(=O)c1nn(-c2c(F)cccc2Cl)cc1Nc1ccc(C(=O)N2CCOCC2)cc1"
Key: 100 to 1000 nM

Exercise: Same thing, different molecule: "CC(C)n1ncnc1-c1ccc(Nc2cn(-c3c(F)cccc3F)nc2C(N)=O)cc1"
Key: 10 to 100 nM

Exercise: Cool, now "Cc1cccc2nnc(-c3ccc(Nc4cn(-c5c(Cl)cccc5Cl)nc4C(N)=O)cc3)n12"
Key: 100 to 1000 nM

Exercise: Likewise for "CC1(C)CN(C(=O)c2ccc(Nc3cn(-c4c(Cl)cccc4Cl)nc3C(N)=O)cc2)C1" ?
Key: 100 to 1000 nM

Exercise: Subsequent entry: "Cc1cncnc1-c1ccc(Nc2cn(-c3c(Cl)cccc3Cl)nc2C(N)=O)cc1"
Key: 100 to 1000 nM

Exercise: Do the same for "NC(=O)c1nn(-c2c(F)cccc2F)cc1Nc1ccc(C(=O)N2CCOCC2)cc1" please
Key: 10 to 100 nM
